experiment.summary: Rate of hydrolysis in homogenized proximal small intestine contents
condition.summary: PSI contents; 1.0 mM prodrug, 37 C; release of free steroid by HPLC
Overview of reported Sp. act. across a group of compounds:
Please give the number followed by its unit.

(Q) Write down Sp. act. measured for item CC12C=CC(=O)C=C1CCC1C2C(O)CC2(C)C1CCC2(O)C(=O)COC1OC(CO)C(O)C(O)C1O (stereo not shown) [Compound 2]
(A) 12.2 nmoles/min/g wet weight

(Q) Write down Sp. act. measured for item CC1CC2C3CCC4=CC(=O)C=CC4(C)C3(F)C(O)CC2(C)C1(O)C(=O)COC1OC(CO)C(O)C(O)C1O (stereo not shown) [Compound 9]
(A) 11.7 nmoles/min/g wet weight

(Q) Write down Sp. act. measured for item CC12CCC(=O)C=C1CCC1C2C(O)CC2(C)C1CCC2(O)C(=O)COC1OC(CO)C(O)C(O)C1O (stereo not shown) [Compound 5]
(A) 15.9 nmoles/min/g wet weight

(Q) Write down Sp. act. measured for item CC1CC2C3CCC4=CC(=O)C=CC4(C)C3(F)C(O)CC2(C)C1(O)C(=O)COC1OC(CO)C(O)C(O)C1O (stereo not shown) [Compound 1]
(A) 11.0 nmoles/min/g wet weight
